Test: aqueous solubility at 25°C
Assay type: physicochemical
Conditions: water, at 25°C
measuredProperty: solubility

Kindly note the recorded solubility for CC(CCc1ccc(O)cc1)NCCc1ccc(O)c(O)c1 (racemic) [dobutamine phosphate monobasic] , which is ~2000 mg/mL
